For each of the binders below, state its binding signal.
- Target System: AGO2 F182del (Homo sapiens, UniProt Q9UKV8 1-859, S387D;S824A;S828D;S831D;S834A;del182-182)
- Sequence (Q9UKV8 other isoform, or with tags, fused parts or gaps S387D;S824A;S828D;S831D;S834A;del182-182): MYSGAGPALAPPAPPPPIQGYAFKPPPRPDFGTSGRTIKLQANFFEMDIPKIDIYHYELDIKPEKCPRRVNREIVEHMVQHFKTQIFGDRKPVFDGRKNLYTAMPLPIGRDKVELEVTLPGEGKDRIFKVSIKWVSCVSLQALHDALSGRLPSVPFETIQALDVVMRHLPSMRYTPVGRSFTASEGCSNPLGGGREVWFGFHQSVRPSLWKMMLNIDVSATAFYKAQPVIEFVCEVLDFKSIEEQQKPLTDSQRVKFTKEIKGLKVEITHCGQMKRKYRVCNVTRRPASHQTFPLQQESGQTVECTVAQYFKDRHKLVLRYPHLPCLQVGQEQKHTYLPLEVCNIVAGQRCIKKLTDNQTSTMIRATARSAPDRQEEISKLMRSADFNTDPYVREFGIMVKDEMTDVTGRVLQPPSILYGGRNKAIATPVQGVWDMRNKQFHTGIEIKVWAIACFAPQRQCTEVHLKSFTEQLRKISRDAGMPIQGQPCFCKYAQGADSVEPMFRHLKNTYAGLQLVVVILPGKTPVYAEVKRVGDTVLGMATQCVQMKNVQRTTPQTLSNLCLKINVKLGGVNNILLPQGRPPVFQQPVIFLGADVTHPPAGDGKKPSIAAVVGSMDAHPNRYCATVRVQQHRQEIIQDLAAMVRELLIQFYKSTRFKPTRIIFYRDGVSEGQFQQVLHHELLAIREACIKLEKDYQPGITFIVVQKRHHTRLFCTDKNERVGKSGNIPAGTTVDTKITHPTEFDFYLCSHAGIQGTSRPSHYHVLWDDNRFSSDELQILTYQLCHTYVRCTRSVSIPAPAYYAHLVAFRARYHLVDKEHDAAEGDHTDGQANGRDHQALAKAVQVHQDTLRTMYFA
- Assay Procedure: RNA Bind-n-Seq (nitrocellulose filter binding and sequencing); miR-122 guide loaded in AGO2; 60 min incubation; 30 mM Tris pH 8.0, 100 mM potassium acetate, 2 mM magnesium acetate, 0.5 mM TCEP, 0.005% NP-40, 0.01 mg/ml yeast tRNA; 3 nM AGO2-miR-122, 100 nM RNA library; 60; high values mean tight binding
- Test Context: protein: recombinant; tags: His6 (N-terminal, pFastBac HTA)

Bench note: what binding signal did ACATTCTA (ssRNA, constant regions annealed to DNA blockers; guide miR-122 5' phosphate) RNA 1: GAGUUCUACAGUCCGACGAUCCCAACACAUUCUACACCUGGAAUUCUCGGGUGCCAA RNA 2: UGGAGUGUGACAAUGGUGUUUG DNA 1: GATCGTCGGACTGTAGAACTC DNA 2: TTGGCACCCGAGAATTCCA show? 0.309 fold enrichment over input

Bench note: what binding signal did GTATTCCA (ssRNA, constant regions annealed to DNA blockers; guide miR-122 5' phosphate) RNA 1: GAGUUCUACAGUCCGACGAUCCCAACGUAUUCCACACCUGGAAUUCUCGGGUGCCAA RNA 2: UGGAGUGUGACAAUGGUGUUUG DNA 1: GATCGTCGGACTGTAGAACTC DNA 2: TTGGCACCCGAGAATTCCA show? 0.898 fold enrichment over input

Bench note: what binding signal did GCACCTCA (ssRNA, constant regions annealed to DNA blockers; guide miR-122 5' phosphate) RNA 1: GAGUUCUACAGUCCGACGAUCCCAACGCACCUCACACCUGGAAUUCUCGGGUGCCAA RNA 2: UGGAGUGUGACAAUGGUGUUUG DNA 1: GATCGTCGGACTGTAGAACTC DNA 2: TTGGCACCCGAGAATTCCA show? 2.01 fold enrichment over input

Bench note: what binding signal did ACGCTCCG (ssRNA, constant regions annealed to DNA blockers; guide miR-122 5' phosphate) RNA 1: GAGUUCUACAGUCCGACGAUCCCAACACGCUCCGCACCUGGAAUUCUCGGGUGCCAA RNA 2: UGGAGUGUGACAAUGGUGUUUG DNA 1: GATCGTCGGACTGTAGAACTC DNA 2: TTGGCACCCGAGAATTCCA show? 15.2 fold enrichment over input
